biological target: 5-hydroxytryptamine receptor 4 (Rattus norvegicus, UniProt Q62758); assay: In vitro binding affinity to 5-hydroxytryptamine 4 receptor in rat striatum membrane; format: cell membranes
Sequence (Q62758 whole entry): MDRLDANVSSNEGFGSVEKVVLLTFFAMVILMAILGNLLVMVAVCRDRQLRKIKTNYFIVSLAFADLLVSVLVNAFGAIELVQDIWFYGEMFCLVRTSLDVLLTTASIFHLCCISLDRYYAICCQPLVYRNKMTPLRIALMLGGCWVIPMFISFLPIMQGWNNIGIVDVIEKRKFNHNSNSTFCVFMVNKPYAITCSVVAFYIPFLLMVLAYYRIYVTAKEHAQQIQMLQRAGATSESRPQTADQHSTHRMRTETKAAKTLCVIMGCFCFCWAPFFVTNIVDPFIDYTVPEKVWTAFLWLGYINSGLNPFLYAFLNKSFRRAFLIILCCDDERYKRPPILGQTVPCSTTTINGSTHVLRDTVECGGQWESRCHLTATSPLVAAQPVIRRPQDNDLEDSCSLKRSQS
pKi: −log10 of the molar value.
quantity.name: pKi

chemical.structure	assay.system	censoring.sign	val
CS(=O)(=O)NCCN1CCC(COC(=O)c2cccc3nc[nH]c23)CC1	5-hydroxytryptamine receptor 4 (Rattus norvegicus, UniProt Q62758)	=	7.58
CCCCN1CCC(CNC(=O)c2ccc(N)c3[nH]cnc23)CC1	5-hydroxytryptamine receptor 4 (Rattus norvegicus, UniProt Q62758)	=	6.94
CCCN1CCC(NC(=O)c2cccc3nc[nH]c23)CC1	5-hydroxytryptamine receptor 4 (Rattus norvegicus, UniProt Q62758)	<	6.00
CN1CCC(OC(=O)c2cccc3nc[nH]c23)CC1	5-hydroxytryptamine receptor 4 (Rattus norvegicus, UniProt Q62758)	<	5.00
CCCCN1CCC(COC(=O)c2cccc3nc[nH]c23)CC1	5-hydroxytryptamine receptor 4 (Rattus norvegicus, UniProt Q62758)	=	7.61
CS(=O)(=O)NCCN1CCC(CNC(=O)c2cc(Cl)cc3[nH]cnc23)CC1	5-hydroxytryptamine receptor 4 (Rattus norvegicus, UniProt Q62758)	=	9.96
CCCCN1CCC(CNC(=O)c2cc(Br)cc3[nH]cnc23)CC1	5-hydroxytryptamine receptor 4 (Rattus norvegicus, UniProt Q62758)	=	9.19
CCCCN1CCC(CNC(=O)c2cc(Cl)c(N)c3[nH]cnc23)CC1	5-hydroxytryptamine receptor 4 (Rattus norvegicus, UniProt Q62758)	=	7.65
CC(C)CN1CCC(CNC(=O)c2cc(Cl)cc3[nH]cnc23)CC1	5-hydroxytryptamine receptor 4 (Rattus norvegicus, UniProt Q62758)	=	9.54
CS(=O)(=O)NCCN1CCC(COC(=O)c2cc(Cl)cc3[nH]cnc23)CC1	5-hydroxytryptamine receptor 4 (Rattus norvegicus, UniProt Q62758)	=	8.64
CC(C)CN1CCC(CNC(=O)c2cc(Cl)cc3c2ncn3Cc2ccccc2)CC1	5-hydroxytryptamine receptor 4 (Rattus norvegicus, UniProt Q62758)	=	7.16
